# Test System: human GPR40 (Homo sapiens, UniProt O14842)
# Construct: expressed in transfected cells; host or cells: HEK cells stably expressing the aequorin reporter
# Sequence (O14842 whole entry): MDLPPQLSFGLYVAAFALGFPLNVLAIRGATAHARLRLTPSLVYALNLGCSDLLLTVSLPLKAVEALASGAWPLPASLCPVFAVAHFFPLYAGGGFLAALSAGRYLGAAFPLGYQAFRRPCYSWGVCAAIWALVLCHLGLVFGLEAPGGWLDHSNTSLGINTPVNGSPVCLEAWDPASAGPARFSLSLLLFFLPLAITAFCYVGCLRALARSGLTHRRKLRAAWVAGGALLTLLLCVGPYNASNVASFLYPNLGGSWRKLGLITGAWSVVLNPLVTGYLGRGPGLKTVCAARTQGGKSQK
# Experimental Protocol: Inositol Phosphate Turnover (IP1) Assay 2
# Format: cell-based
# Condition Context: HEK cells stably expressing human GPR40; 15,000 cells per well; compound acoustically transferred; CisBio IP-One kit
Measured Property: EC50 (nM)

Previously resolved entries follow.
INSERT INTO assay_data (molecule, measured) VALUES
  ('COc1cc(-c2ccc([C@@H]3CCc4ccc([C@H](C5CC5)[C@H](C)C(=O)O)cc4O3)cc2CN2CCCCC2(C)C)c(F)cn1', 0.5),
  ('COc1cc(-c2ccc(C3CCc4ccc([C@H](C5CC5)[C@H](C)C(=O)O)cc4O3)cc2CN2CCC[C@@H]2C)c(F)cn1 (stereo partly drawn)', 1.8),
  ('COc1cc(-c2ccc(C3CCc4ccc([C@H](C5CC5)[C@H](C)C(=O)O)cc4O3)cc2C(C)N2CCCC2)c(F)cn1 (stereo partly drawn)', 2),
  ('COc1cc(-c2ccc([C@H]3CCc4ccc([C@H](C5CC5)[C@H](C)C(=O)O)cc4O3)cc2CNCC(F)(F)F)c(F)cn1', 2.5);

a: COc1cc(-c2ccc([C@@H]3CCc4ccc([C@H](C5CC5)[C@H](C)C(=O)O)cc4O3)cc2CN2[C@H](C)CC[C@H]2C)c(F)cn1
b: COc1cc(-c2ccc([C@H]3CCc4ccc([C@H](C5CC5)[C@H](C)C(=O)O)cc4O3)cc2CN2CCCC[C@H]2C)c(F)cn1
Exercise: compare a and b ; which one has the greater EC50? Write the label of whichever entry you select.
b

====

# Test System: human GPR40 (Homo sapiens, UniProt O14842)
# Construct: expressed in transfected cells; host or cells: HEK cells stably expressing the aequorin reporter
# Experimental Protocol: Inositol Phosphate Turnover (IP1) Assay 3
# Assay type: cell-based
# Condition Context: HEK cells stably expressing human GPR40
# Experimental: Human and mouse GPR40 stable cell-lines were generated in CHO cells stably expressing NFAT BLA (Beta-lactamase). A human GPR40 stable cell-line was generated in HEK cells stably expressing the aequorin expressing reporter. […] Measurement of Inositol Phosphate Turnover (IP) was performed using the CisBio IP-One kit (Part number 62IPAPEB). […] The plates were then read in a Perkin Elmer EnVision or equivalent reader able to measure FRET. […]
pEC50: −log10 of the molar value.
Measured Property: pEC50

INSERT INTO assay_data (compound, measured_property, measured) VALUES
  ('COc1cc(-c2ccc(C3CCc4ccc([C@H](C5CC5)[C@H](C)C(=O)O)cc4O3)cc2CN2CCC(C)(C)C2)c(F)cn1 (stereo partly drawn) [Example 266]', 'pEC50', 10.00);

P: COc1cc(-c2ccc(C3CCc4ccc([C@H](C5CCC5)[C@H](C)C(=O)O)cc4O3)cc2CN2CCCC2(C)C)c(F)cn1 (single isomer, unassigned) [Example 109]
Q: COc1cc(-c2ccc(C3CCc4ccc([C@H](C5CC5)[C@H](C)C(=O)O)cc4O3)c(CN(C)C(C)(C)C)c2)ccn1 (single isomer, unassigned) [Example 114b]
Exercise: compare P and Q ; which one has the greater pEC50? Write the label of whichever entry you select.
P

====

# Test System: human GPR40 (Homo sapiens)
# Construct: expressed in transfected cells; host or cells: HEK cells stably expressing the aequorin reporter
# Experimental Protocol: Inositol Phosphate Turnover (IP1) Assay 3
# Type: cell-based
# Condition Context: HEK cells stably expressing human GPR40
pEC50: −log10 of the molar value.
Measured Property: pEC50

Previously resolved entries follow.
INSERT INTO assay_data (compound, test_system, measured_property, measured) VALUES
  ('CCOc1cc(-c2ccc(C3CCc4ccc([C@H](C5CC5)[C@H](C)C(=O)O)cc4O3)c(CN(C)C(C)(C)C)c2)c(F)cn1 (mixture of isomers) [Example 132]', 'human GPR40 (Homo sapiens)', 'pEC50', 8.32),
  ('COc1cc(-c2ccc(C3CCc4ccc([C@H](C5CCC5)[C@H](C)C(=O)O)cc4O3)cc2CN2CCCCC2)c(F)cn1 (single isomer, unassigned) [Example 104]', 'human GPR40 (Homo sapiens)', 'pEC50', 8.96),
  ('CCN(Cc1cc(-c2ccnc(OC)c2)ccc1C1CCc2ccc([C@H](C3CC3)[C@H](C)C(=O)O)cc2O1)C(C)C (single isomer, unassigned) [Example 113b]', 'human GPR40 (Homo sapiens)', 'pEC50', 7.85),
  ('CCOc1cc(-c2ccc(C3CCc4ccc([C@H](C5CC5)[C@H](C)C(=O)O)cc4O3)cc2CN2CCCC2)c(F)cn1 (single isomer, unassigned) [Example 173]', 'human GPR40 (Homo sapiens)', 'pEC50', 7.30),
  ('COc1cc(-c2cc(F)c(C3CCc4ccc([C@H](C5CC5)[C@H](C)C(=O)O)cc4O3)cc2CN2CCCCC23CC3)ccn1 (single isomer, unassigned) [Example 188]', 'human GPR40 (Homo sapiens)', 'pEC50', 9.15),
  ('COc1cc(-c2ccc([C@@H]3CCc4ccc([C@H](C5CC5)[C@H](C)C(=O)O)cc4O3)cc2CN2CC3CC3C2)c(F)cn1 (some centres unmarked) [Example 250]', 'human GPR40 (Homo sapiens)', 'pEC50', 9.72),
  ('COc1cc(-c2ccc([C@@H]3CCc4ccc([C@H](C5CC5)[C@H](C)C(=O)O)cc4O3)cc2CN(C)C(C)(C)C)c(F)cn1 [Example 226]', 'human GPR40 (Homo sapiens)', 'pEC50', 8.96),
  ('CCC1CCCCN1Cc1cc(C2CCc3ccc([C@H](C4CC4)[C@H](C)C(=O)O)cc3O2)ccc1-c1cc(OC)ncc1F (single isomer, unassigned) [Example 273b]', 'human GPR40 (Homo sapiens)', 'pEC50', 9.52),
  ('COc1cc(-c2ccc(C3CCc4ccc([C@H](C5CC5)[C@H](C)C(=O)O)cc4O3)cc2CN2[C@H]3CC[C@@H]2CC3)ccn1 (some centres unmarked) [Example 289]', 'human GPR40 (Homo sapiens)', 'pEC50', 7.14);

A: COc1cc(-c2ccc(C3CCc4ccc([C@H](C5CCC5)[C@H](C)C(=O)O)cc4O3)cc2CN2[C@H](C)CC[C@H]2C)c(F)cn1 (single isomer, unassigned) [Example 96]
B: C[C@H](C(=O)O)[C@H](c1ccc2c(c1)OC(c1ccc(-c3cc(O)ncc3C#N)c(CN3CCCCC34CC4)c1)CC2)C1CC1 (some centres unmarked) [Example 295]
C: COc1cc(-c2ccc(C3CCc4ccc([C@H](C5CC5)[C@H](C)C(=O)O)cc4O3)c(CN3[C@H](C)CC[C@H]3C)c2)c(F)cn1 (some centres unmarked) [Example 127]
D: COc1cc(-c2ccc(C3CCc4ccc([C@H](C5CC5)[C@H](C)C(=O)O)cc4O3)cc2CN(C)C(C)C)ccn1 (some centres unmarked) [Example 286]
E: COc1cc(-c2ccc(C3CCc4ccc([C@H](C5CC5)[C@H](C)C(=O)O)cc4O3)cc2C(CN2CCCC2)OC)ccn1 (single isomer, unassigned) [Example 177]
Order the records so the highest pEC50 appears first and the lowest last. A ranking is expressed here by listing the labels in the requested order.
A, C, D, B, E

====

# Test System: human GPR40 (Homo sapiens)
# Construct: expressed in transfected cells; host or cells: HEK cells stably expressing the aequorin reporter
# Experimental Protocol: Inositol Phosphate Turnover (IP1) Assay 2
# Assay type: cell-based
# Condition Context: HEK cells stably expressing human GPR40; 15,000 cells per well; compound acoustically transferred; CisBio IP-One kit
Measured Property: EC50 (nM)

INSERT INTO measurements (compound, test_system, measured) VALUES
  ('COc1cc(-c2ccc([C@H]3CCc4ccc([C@H](C5CC5)[C@H](C)C(=O)O)cc4O3)cc2[C@H](C)N(C)C)c(F)cn1 [Example 80]', 'human GPR40 (Homo sapiens)', 11),
  ('COc1cc(-c2ccc(C3CCc4ccc([C@H](C5CC5)[C@H](C)C(=O)O)cc4O3)cc2CN2CC[C@@H](OC)C2)c(F)cn1 (stereo partly drawn)', 'human GPR40 (Homo sapiens)', 11),
  ('COc1cc(-c2ccc(C3CCc4ccc([C@H](C5CC5)[C@H](C)C(=O)O)cc4O3)cc2CN2CC(C)(OC)C2)c(F)cn1 (mixture of isomers)', 'human GPR40 (Homo sapiens)', 8.2);

====

# Test System: human GPR40 (Homo sapiens, UniProt O14842)
# Construct: expressed in transfected cells; host or cells: HEK cells stably expressing the aequorin reporter
# Experimental Protocol: Inositol Phosphate Turnover (IP1) Assay 2
# Format: cell-based
# Condition Context: HEK cells stably expressing human GPR40; 15,000 cells per well; compound acoustically transferred; CisBio IP-One kit
Listing of entries alongside the reported pEC50.
pEC50 is defined as minus the log10 of a concentration measured in mol/L.

Noted for COc1cc(-c2ccc([C@@H]3CCc4ccc([C@H](C5CC5)[C@H](C)C(=O)O)cc4O3)cc2CN2C3CCC2CC3)c(F)cn1 [Example 162] : its pEC50 reads 8.27

Noted for COc1cc(-c2ccc(C3CCc4ccc([C@H](C5CC5)[C@H](C)C(=O)O)cc4O3)cc2CN2CCNCC2)c(F)cn1 (mixture of isomers) [Example 33] : its pEC50 reads 6.24

Noted for COc1cc(-c2ccc([C@H]3CCc4ccc([C@H](C5CC5)[C@H](C)C(=O)O)cc4O3)cc2CN2C3CCC2CC3)c(F)cn1 [Example 148] : its pEC50 reads 8.38

Entry source: patent US10968193B2
